- TARGET_SYSTEM: 4R-tau aggregates in CBD tissue (Homo sapiens)
- Construct: tissue Neurodegenerative Disease Brain Bank at UCSF; host or cells: human CBD brain, middle frontal gyrus (pool of three) or putamen (one subject)
- PROCEDURE_TEXT: Competition binding vs [^3H]OXD-2314 in CBD tissue
- TEST_SETTINGS: vs [^3H]OXD-2314, CBD tissue
MEASURE_NAME: pKi
Give bare numbers, as −log10 of the molar value.

Any idea what its pKi is? The compound is C#CCN(C)C(C)Cc1ccccc1 (centres unmarked) [Deprenyl] 5.30

* * *

- PROCEDURE_TEXT: Mouse pharmacology (DMPK): plasma and brain concentrations, brain-to-plasma ratios after i.v. administration
- Assay type: in vivo, mice
- TEST_SETTINGS: mouse, brain, iv, mice, i.v., AUC brain:plasma, FREE; read-out: free concentration ratio brain-to-plasma
MEASURE_NAME: Kp,uu (unbound brain-to-plasma ratio)

molecule="COC1CCCN(c2ccc(-c3cc4cc(O)ccc4[nH]3)c(F)n2)C1 (centres unmarked)" measured_result=0.6

Next:
I am curious: what Kp,uu (unbound brain-to-plasma ratio) value has been reported for OCC1CCN(c2ccc(-c3cc4cc(O)ccc4[nH]3)c(F)n2)CC1 ? 0.002

* * *

- TARGET_SYSTEM: aggregated Aβ (Homo sapiens, UniProt P05067)
- Construct: tissue Neurodegenerative Disease Brain Bank at UCSF
- Sequence (P05067 672-713 limits assumed): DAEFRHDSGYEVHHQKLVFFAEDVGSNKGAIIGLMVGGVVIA
- PROCEDURE_TEXT: Competition binding vs [^3H]PiB in AD tissue homogenates
- TEST_SETTINGS: n = 3
MEASURE_NAME: Ki (nM)
Give bare numbers, in nM.

Name the recorded Ki for COC1CCCN(c2ccc(-c3cc4cc(O)ccc4[nH]3)c(F)n2)C1 (stereo not shown) . 161

* * *

- TARGET_SYSTEM: 4R-tau aggregates in PSP tissue (Homo sapiens, UniProt P10636)
- Construct: tissue Neurodegenerative Disease Brain Bank at UCSF
- Sequence (P10636 1-441 isoform P10636-8): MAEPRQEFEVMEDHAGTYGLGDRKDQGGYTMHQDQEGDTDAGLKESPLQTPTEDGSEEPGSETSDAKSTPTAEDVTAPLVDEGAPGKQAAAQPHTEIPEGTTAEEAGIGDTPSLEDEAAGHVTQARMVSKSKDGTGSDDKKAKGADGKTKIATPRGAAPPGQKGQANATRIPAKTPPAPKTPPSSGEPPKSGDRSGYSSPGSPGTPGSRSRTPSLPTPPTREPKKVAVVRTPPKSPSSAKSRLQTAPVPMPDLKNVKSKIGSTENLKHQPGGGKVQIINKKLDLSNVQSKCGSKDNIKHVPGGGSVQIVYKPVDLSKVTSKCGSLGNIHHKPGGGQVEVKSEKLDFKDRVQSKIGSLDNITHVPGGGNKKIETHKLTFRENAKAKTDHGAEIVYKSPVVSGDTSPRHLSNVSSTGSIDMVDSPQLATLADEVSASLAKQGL
- PROCEDURE_TEXT: Competition binding vs [^3H]OXD-2115 in PSP tissue homogenates
- TEST_SETTINGS: vs [^3H]OXD-2115, PSP tissue homogenates, n = 1
MEASURE_NAME: Ki (nM)
Answers are plain numbers, in nM.

See these solved cases before continuing.
compound="Oc1ccc2[nH]c(-c3ccc(N4CCCC(F)C4)nc3F)cc2c1 (stereo not drawn) [OXD-2312]" measure_name=Ki measured_result=5.1
compound="CO[C@H]1CCCN(c2ncc(-c3cc4cc(O)ccc4[nH]3)c(F)n2)C1 [OXD-2331]" measure_name=Ki measured_result=6.3

For each of the compounds below, state Ki.
1. COC1CCCN(c2ccc(-c3cc4cc(O)ccc4[nH]3)c(F)n2)C1 (stereo not drawn) [OXD-2314]
2. Oc1ccc2[nH]c(-c3ccc(N4CCC(O)CC4)nc3F)cc2c1 [OXD-2310]
3. Oc1ccc2[nH]c(-c3ccc(N4CCC(F)CC4)nc3F)cc2c1 [OXD-2317]
4. Oc1ccc2[nH]c(-c3ccc(N4CCC[C@H](O)C4)nc3F)cc2c1 [OXD-2189]
5. Oc1ccc2[nH]c(-c3ccc(N4CCC[C@@H](O)C4)nc3F)cc2c1 [OXD-2188]
6. OCC1CCN(c2ccc(-c3cc4cc(O)ccc4[nH]3)c(F)n2)CC1 [OXD-2115]
7. Oc1ccc2[nH]c(-c3ccc(F)nc3N3CCCC(F)C3)cc2c1 (stereo not drawn) [OXD-2313]

1: 4.8; 2: 6.6; 3: 5.8; 4: 13.7; 5: 29.8; 6: 27; 7: 4.8

* * *

- PROCEDURE_TEXT: logD7.4 by shake-flask method
- Format: physicochemical
- TEST_SETTINGS: pH 7.4
- Procedure: [^18F]OXD-2314 was radiolabeled by an analogous method previously reported for [^18F]OXD-2115 with minor modifications (Fig. 2)[30]. […] The logD7.4 value of [^18F]OXD-2314 was measured as 3.11 ± 0.04 using the shake-flask method.
MEASURE_NAME: logD
One number for each entry.

Return reported logD; argument: CO[C@H]1CCCN(c2ccc(-c3cc4cc(O)ccc4[nH]3)c([18F])n2)C1 [[^18F]OXD-2314] 3.11

* * *

- TARGET_SYSTEM: 4R-tau aggregates in PSP tissue (Homo sapiens)
- Construct: tissue Neurodegenerative Disease Brain Bank at UCSF
- PROCEDURE_TEXT: Competition binding vs [^3H]OXD-2314 in PSP tissue
MEASURE_NAME: Ki (nM)
Answers are plain numbers, in nM.

Example entries begin here.
compound="COC1CCCN(c2ccc(-c3cc4cc(O)ccc4[nH]3)c(F)n2)C1 (stereo not shown) [OXD-2314]" target_system="4R-tau aggregates in PSP tissue (Homo sapiens)" measured_result=5.8
compound="OCC1CCN(c2ccc(-c3cc4cc(O)ccc4[nH]3)c(F)n2)CC1 [OXD-2115]" target_system="4R-tau aggregates in PSP tissue (Homo sapiens)" measured_result=27

Attention now shifts to the item below.
Tell me the measured Ki of Nc1c(F)ccc2cnc(-n3ccc4ccncc43)cc12 [MK-6240] , please. 5600

* * *

I'd appreciate it if you could supply pKi values for the items below.
- TARGET_SYSTEM: 3R-tau aggregates in PiD tissue (Homo sapiens, UniProt P10636)
- Construct: tissue Neurodegenerative Disease Brain Bank at UCSF
- Sequence (P10636 1-410 isoform P10636-5): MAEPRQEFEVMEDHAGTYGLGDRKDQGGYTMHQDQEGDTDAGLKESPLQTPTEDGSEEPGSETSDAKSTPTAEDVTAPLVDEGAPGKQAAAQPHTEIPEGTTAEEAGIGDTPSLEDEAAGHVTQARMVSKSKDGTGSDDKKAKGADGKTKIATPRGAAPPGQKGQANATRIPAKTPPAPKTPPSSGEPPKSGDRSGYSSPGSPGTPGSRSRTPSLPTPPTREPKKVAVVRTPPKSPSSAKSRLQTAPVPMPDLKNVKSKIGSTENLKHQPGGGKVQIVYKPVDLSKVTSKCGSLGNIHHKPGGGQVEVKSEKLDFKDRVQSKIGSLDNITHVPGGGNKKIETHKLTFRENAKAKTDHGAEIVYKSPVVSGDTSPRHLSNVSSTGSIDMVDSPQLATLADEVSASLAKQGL
- PROCEDURE_TEXT: Competition binding vs [^3H]OXD-2314 in PiD tissue
- Method: Fresh frozen, autopsy-confirmed human PD anterior cingulate cortex brain tissue blocks (1 cm^3) were obtained from Dr. Thomas Beach at Banner/Sun Health AZ with funding from the Michael J. Fox Foundation and contained frequent α-synuclein aggregates and no other detectable aggregated amyloid species. […] The equilibrium inhibition constant (Ki) values of the unlabeled compounds were determined versus tritium-labeled radioligands using published methods.
One number for each entry, as −log10 of the molar value.

compound=OCC1CCN(c2ccc(-c3cc4cc(O)ccc4[nH]3)c(F)n2)CC1 measure_name=pKi measured_result=7.64

Field: pKi. Fill in for each record below.
1. Nc1c(F)ccc2cnc(-n3ccc4ccncc43)cc12
2. COC1CCCN(c2ccc(-c3cc4cc(O)ccc4[nH]3)c(F)n2)C1 (stereo not shown)
3. Fc1ccc(-c2ccc3c(c2)[nH]c2ccncc23)cn1

1: 6.00; 2: 8.26; 3: 5.36

* * *

Please go through the items and note down their Kp.
- PROCEDURE_TEXT: Mouse pharmacology (DMPK): plasma and brain concentrations, brain-to-plasma ratios after i.v. administration
- Type: in vivo, mice
- TEST_SETTINGS: mouse, brain, iv, mice, i.v., AUC brain:plasma, TOTAL; read-out: total brain-to-plasma concentration ratio
Numbers only.

Look at each molecule and report its Kp.
1. OCC1CCN(c2ccc(-c3cc4cc(O)ccc4[nH]3)c(F)n2)CC1
2. COC1CCCN(c2ccc(-c3cc4cc(O)ccc4[nH]3)c(F)n2)C1 (centres unmarked)

0.1
1.7

* * *

- TARGET_SYSTEM: 3R/4R-tau aggregates in AD tissue (Homo sapiens)
- PROCEDURE_TEXT: Competition binding vs [^3H]OXD-2314 in AD tissue
- Sequence (P10636 623-758 limits assumed): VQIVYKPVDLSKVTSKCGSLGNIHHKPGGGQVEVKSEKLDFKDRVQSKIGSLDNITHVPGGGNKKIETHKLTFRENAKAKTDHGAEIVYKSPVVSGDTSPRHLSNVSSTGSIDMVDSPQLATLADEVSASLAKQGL
MEASURE_NAME: pKi
One number for each entry, as −log10 of the molar value.

compound=Nc1c(F)ccc2cnc(-n3ccc4ccncc43)cc12 measured_result=5.72
compound=OCC1CCN(c2ccc(-c3cc4cc(O)ccc4[nH]3)c(F)n2)CC1 measured_result=7.85

Pending compound:
Which pKi is reported with 3R/4R-tau aggregates in AD tissue (Homo sapiens) for this entry: COC1CCCN(c2ccc(-c3cc4cc(O)ccc4[nH]3)c(F)n2)C1 (stereo not shown) ? 8.32

* * *

- TARGET_SYSTEM: 3R/4R-tau aggregates in AD tissue (Homo sapiens)
- PROCEDURE_TEXT: Competition binding vs [^3H]OXD-2115 in AD tissue homogenates
- TEST_SETTINGS: vs [^3H]OXD-2115, AD tissue homogenates, n = 1
- Sequence (P10636 623-695 limits assumed): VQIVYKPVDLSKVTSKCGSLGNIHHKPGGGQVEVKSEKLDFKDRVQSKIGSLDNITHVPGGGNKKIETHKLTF
Kindly apply the following: True if Ki is less than 9 nM, False in every other case.

Here are 4 molecules together with their reported answers.
molecule=Oc1ccc2[nH]c(-c3ccc(N4CCC(F)CC4)nc3F)cc2c1 label_value=True
molecule=OCC1CCN(c2ccc(-c3cc4cc(O)ccc4[nH]3)c(F)n2)CC1 label_value=False
molecule="Oc1ccc2[nH]c(-c3ccc(N4CCCC(F)C4)nc3F)cc2c1 (stereo not shown)" label_value=False
molecule=CO[C@H]1CCCN(c2ncc(-c3cc4cc(O)ccc4[nH]3)c(F)n2)C1 label_value=True

API: query returns whether the molecule falls strictly under 9 nM in Ki. Query: Oc1ccc2[nH]c(-c3ccc(N4CCC(O)CC4)nc3F)cc2c1 False

Lab log: compare recorded Ki with 9 nM; is it strictly lower for Oc1ccc2[nH]c(-c3ccc(F)nc3N3CCCC(F)C3)cc2c1 (stereo not shown) ? False

* * *

- TARGET_SYSTEM: 4R-tau aggregates in CBD tissue (Homo sapiens, UniProt P10636)
- Construct: tissue Neurodegenerative Disease Brain Bank at UCSF; host or cells: human CBD brain, middle frontal gyrus (pool of three) or putamen (one subject)
- PROCEDURE_TEXT: Competition binding vs [^3H]OXD-2314 in CBD tissue
MEASURE_NAME: Ki (nM)
One number for each entry, in nM.

Past entries and their recorded results:
compound="COC1CCCN(c2ccc(-c3cc4cc(O)ccc4[nH]3)c(F)n2)C1 (stereo not shown) [OXD-2314]" measured_result=6.5
compound="OCC1CCN(c2ccc(-c3cc4cc(O)ccc4[nH]3)c(F)n2)CC1 [OXD-2115]" measured_result=30

Using the record for Nc1c(F)ccc2cnc(-n3ccc4ccncc43)cc12 [MK-6240] , report its Ki. 1700
